# measurementTarget: recombinant human ULK1 protein (1-649) (Homo sapiens)
# Construct: recombinant human ULK1 protein (1-649, SignalChem #U01-11G); purchased SignalChem U01-11G
# procedureSummary: ULK1 inhibition assay (ADP Glo)
# Type: biochemical
# testConditions: Table 3
pIC50: −log10 of the molar value.
Record form. Attribute: pIC50. Fill in for each entry.

Check out these entries, answers already filled in.
- compound: "CN(C)Cc1ccc(Nc2ncc(C(F)(F)F)c(NC3CC3)n2)cc1"
  pIC50: "> 8.30"
- compound: "CNC(=O)c1ccccc1Nc1nc(Nc2ccc(OC(F)(F)F)cc2)ncc1Br"
  pIC50: "< 7.00"
- compound: "CNC(=O)c1ccccc1Nc1nc(Nc2ccc(OC)cc2)ncc1Br"
  pIC50: "< 7.00"
- compound: "CNC(=O)c1ccccc1Nc1nc(Nc2ccc3c(c2)OCCO3)ncc1Br"
  pIC50: "7.00 to 8.30"
- compound: "OCc1ccccc1Nc1nc(Nc2ccc(OC(F)F)cc2)ncc1Br"
  pIC50: "7.00 to 8.30"
- compound: "CN(C)C1Cc2ccc(Nc3ncc(C(F)(F)F)c(NC4CC4)n3)cc2C1 (stereo not drawn)"
  pIC50: "> 8.30"

Hey, quick one: what's pIC50 for each of these?
1. CNC(=O)c1ccccc1Nc1cc(C#N)nc(Nc2cc(OC)c(OC)c(OC)c2)n1
2. CNC(=O)c1ccccc1Nc1nc(Nc2cccc(OC(F)(F)F)c2)ncc1Br

Solution:
["< 7.00", "7.00 to 8.30"]

pIC50 of `CC(=O)NCc1ccc(Nc2ncc(C(F)(F)F)c(NC3CC3)n2)cc1` , assay on recombinant human ULK1 protein (1-649) (Homo sapiens), is 7.00 to 8.30

---

# measurementTarget: NanoLuc®-ULK1 Fusion (Homo sapiens, UniProt O75385)
# Construct: host or cells: HEK293T
# Sequence (O75385 whole entry, the tested form may be a part): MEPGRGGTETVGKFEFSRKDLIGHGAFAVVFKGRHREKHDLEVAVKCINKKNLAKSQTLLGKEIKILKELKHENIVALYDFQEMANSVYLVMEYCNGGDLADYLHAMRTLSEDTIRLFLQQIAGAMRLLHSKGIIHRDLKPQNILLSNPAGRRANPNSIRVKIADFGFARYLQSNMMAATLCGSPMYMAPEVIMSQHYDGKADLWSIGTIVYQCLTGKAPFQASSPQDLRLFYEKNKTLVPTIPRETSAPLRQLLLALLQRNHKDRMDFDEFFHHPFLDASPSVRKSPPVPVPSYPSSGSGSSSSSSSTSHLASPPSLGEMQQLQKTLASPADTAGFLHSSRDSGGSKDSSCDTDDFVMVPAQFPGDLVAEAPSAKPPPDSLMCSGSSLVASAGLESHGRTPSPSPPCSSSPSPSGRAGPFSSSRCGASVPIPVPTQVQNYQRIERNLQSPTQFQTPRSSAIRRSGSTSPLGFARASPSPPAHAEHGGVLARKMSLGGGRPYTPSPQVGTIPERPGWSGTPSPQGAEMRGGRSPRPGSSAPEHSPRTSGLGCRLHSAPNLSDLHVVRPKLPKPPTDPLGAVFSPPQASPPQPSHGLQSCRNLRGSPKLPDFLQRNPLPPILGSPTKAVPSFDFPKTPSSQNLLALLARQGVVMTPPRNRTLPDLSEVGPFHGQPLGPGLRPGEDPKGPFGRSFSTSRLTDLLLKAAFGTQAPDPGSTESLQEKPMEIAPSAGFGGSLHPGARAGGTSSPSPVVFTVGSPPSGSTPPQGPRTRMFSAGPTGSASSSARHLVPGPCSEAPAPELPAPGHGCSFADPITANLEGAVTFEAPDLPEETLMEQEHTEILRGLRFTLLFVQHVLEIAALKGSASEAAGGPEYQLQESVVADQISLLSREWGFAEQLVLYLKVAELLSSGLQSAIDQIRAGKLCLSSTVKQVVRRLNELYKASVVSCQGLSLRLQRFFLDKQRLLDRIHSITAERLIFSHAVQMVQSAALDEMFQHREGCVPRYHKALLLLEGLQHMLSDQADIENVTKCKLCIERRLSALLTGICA
# procedureSummary: ULK1 NanoBRET assay in HEK293T cells
# Format: cell-based
# testConditions: Table 1, 2 h incubation
Record form. Attribute: IC50. Fill in for each entry.

Check out these entries, answers already filled in.
- smilesRepr: "COCCN1CCc2cc(Nc3ncc(C(F)(F)F)c(NC(C)C)n3)ccc2C1"
  measurementTarget: "NanoLuc®-ULK1 Fusion (Homo sapiens, UniProt O75385)"
  readout: "IC50"
  result: "< 100 nM"
- smilesRepr: "CNC(=O)c1ccccc1Nc1nc(Nc2ccc3c(c2)CCN(CCOC)C3)ncc1C(F)(F)F"
  measurementTarget: "NanoLuc®-ULK1 Fusion (Homo sapiens, UniProt O75385)"
  readout: "IC50"
  result: "< 100 nM"
- smilesRepr: "CNC(=O)c1ccccc1Nc1nc(Nc2ccc3c(c2)CCN(CCOC)C3)ncc1Br"
  measurementTarget: "NanoLuc®-ULK1 Fusion (Homo sapiens, UniProt O75385)"
  readout: "IC50"
  result: "< 100 nM"

Hey, quick one: what's IC50 for each of these?
1. CNC(=O)c1ccccc1Nc1nc(Nc2ccc3c(c2)CCN(CCOC)C3)ncc1Cl
2. C#CCC(=O)N1CCc2cc(Nc3ncc(C(F)(F)F)c(NC4CC4)n3)ccc2C1
3. CNC(=O)c1ccccc1Nc1nc(Nc2ccc3c(c2)CCNC3)ncc1C(F)(F)F

Solution:
1. < 100 nM
2. > 100 nM
3. < 100 nM

---

# measurementTarget: recombinant human ULK1 protein (1-649) (Homo sapiens)
# Construct: recombinant human ULK1 protein (1-649, SignalChem #U01-11G); purchased SignalChem U01-11G
# procedureSummary: ULK1 inhibition assay (ADP Glo)
# Type: biochemical
# testConditions: Table 1; 25 uM ATP, MBP substrate, one hour
readout: IC50

- molecule: "FC(F)(F)c1cnc(Nc2ccc3c(c2)CCN(CCN2CCOCC2)C3)nc1NC1CC1 [Compound A5]"
  result: "< 1 nM"
- molecule: "FC(F)(F)c1cnc(Nc2ccc3c(c2)CN(Cc2cncnc2)CC3)nc1NC1CC1 [Compound A108]"
  result: "< 1 nM"
- molecule: "CNC(=O)c1ccccc1Nc1nc(Nc2ccc3c(c2)CCN(C(=O)CN)C3)ncc1Br [Compound A132]"
  result: "> 10 nM"
- molecule: "CN1CCC(N2CCc3cc(Nc4ncc(C(F)(F)F)c(NC5CC5)n4)ccc3C2)CC1 [Compound A73]"
  result: "< 1 nM"
- molecule: "C#CCC(=O)N1CCc2cc(Nc3ncc(C(F)(F)F)c(NC4CC4)n3)ccc2C1 [Compound A84]"
  result: "1 to 10 nM"

Hey, quick one: what's IC50 for each of these?
1. Oc1ccc(CN2CCc3cc(Nc4ncc(C(F)(F)F)c(NC5CC5)n4)ccc3C2)cc1 [Compound A77]
2. FC(F)(F)c1cnc(Nc2ccc3c(c2)CCN(Cc2cc[nH]c2)C3)nc1NC1CC1 [Compound A42]
3. CC(=O)CCN1CCc2cc(Nc3ncc(C(F)(F)F)c(NC4CC4)n3)ccc2C1 [Compound A56]
4. CNC(=O)c1ccccc1Nc1nc(Nc2ccc3c(c2)CN(CCC(=O)O)CC3)ncc1Br [Compound A164]

Solution:
1: < 1 nM; 2: < 1 nM; 3: < 1 nM; 4: > 10 nM

Hey, quick one: what's IC50 for each of these?
1. O=C(O)c1cnc(Nc2ccc3c(c2)CCNC3)nc1NC1CC1 [Compound A85]
2. O=S(=O)(C1CC1)N1CCc2cc(Nc3ncc(C(F)(F)F)c(NC4CC4)n3)ccc2C1 [Compound A116]
3. CN1CCc2cc(Nc3ncc(C(N)=O)c(NC4CC4)n3)ccc2C1 [Compound A64]
4. CNC(=O)c1ccccc1Nc1nc(Nc2ccc3c(c2)CCN(CCOC)C3)ncc1Cl [Compound A117]
5. FC(F)(F)c1cnc(Nc2ccc3c(c2)CN(Cc2c[nH]cn2)CC3)nc1NC1CC1 [Compound A105]

Solution:
> 10 nM
1 to 10 nM
< 1 nM
1 to 10 nM
1 to 10 nM

Hey, quick one: what's IC50 for each of these?
1. CNC(=O)c1ccccc1Nc1nc(Nc2ccc3c(c2)CCN(CCOC)C3)ncc1Br [Compound A118]
2. COc1ccc(CN2CCc3cc(Nc4ncc(C(F)(F)F)c(NC5CC5)n4)ccc3C2)cc1 [Compound A113]
3. CNC(=O)c1ccccc1Nc1nc(Nc2ccc3c(c2)CN(C(=O)CN)CC3)ncc1Br [Compound A152]

Solution:
1: 1 to 10 nM; 2: < 1 nM; 3: > 10 nM

---

Record form. Attribute: IC50. Fill in for each entry.
# measurementTarget: recombinant human ULK1 protein (1-649) (Homo sapiens, UniProt O75385)
# Construct: recombinant human ULK1 protein (1-649, SignalChem #U01-11G); purchased SignalChem U01-11G
# procedureSummary: ULK1 inhibition assay (ADP Glo)
# Assay type: biochemical
# testConditions: Table 1; 25 uM ATP, MBP substrate, one hour
# Protocol: Illustrative compounds of Formula I and related analogs are shown in Table 1 (along with their respective IC50 values for ULK1 inhibition assays). […] ULK 1 inhibition was assessed after one hour. […] According to another embodiment, the present disclosure provides methods of producing the above-defined compounds. […] Advantageously, these compounds are conveniently synthesized from readily available starting materials. […]

Check out these entries, answers already filled in.
- molecule: "CCOC(=O)c1cnc(Nc2ccc3c(c2)CCN(C(=O)OC(C)(C)C)C3)nc1NC1CC1"
  result: "> 10 nM"
- molecule: "FC(F)(F)c1cnc(Nc2ccc3c(c2)CCN(CC2CCCN2)C3)nc1NC1CC1 (stereo not shown)"
  result: "1 to 10 nM"
- molecule: "CC(C)(C)OC(=O)N1CCc2cc(Nc3ncc(C(=O)O)c(NC4CC4)n3)ccc2C1"
  result: "> 10 nM"

Now examine the next entry.
IC50 of `CN1CCc2cc(Nc3ncc(N)c(NC4CC4)n3)ccc2C1` , assay on recombinant human ULK1 protein (1-649) (Homo sapiens, UniProt O75385), is > 10 nM

---

# measurementTarget: recombinant human ULK1 protein (1-649) (Homo sapiens)
# Construct: recombinant human ULK1 protein (1-649, SignalChem #U01-11G); purchased SignalChem U01-11G
# procedureSummary: ULK1 inhibition assay (ADP Glo)
# Assay type: biochemical
# testConditions: Table 2
# Protocol: Illustrative compounds of Formula I and related analogs are shown in Table 1 (along with their respective IC50 values for ULK1 inhibition assays). […] ULK 1 inhibition was assessed after one hour. […] According to another embodiment, the present disclosure provides methods of producing the above-defined compounds. […] Advantageously, these compounds are conveniently synthesized from readily available starting materials. […]
pIC50: −log10 of the molar value.
Record form. Attribute: pIC50. Fill in for each entry.

Check out these entries, answers already filled in.
- smilesRepr: "COC(=O)c1ccccc1Oc1nc(Nc2ccc(N(C)C)cc2)ncc1Br"
  pIC50: "6.00 to 7.00"
- smilesRepr: "COC(=O)c1ccccc1Oc1nc(Nc2ccc(N3CCCC3)cc2)ncc1Br"
  pIC50: "< 6.00"
- smilesRepr: "COC(=O)c1ccccc1Oc1nc(Nc2cccc(OC(F)F)c2)ncc1Br"
  pIC50: "< 6.00"

Hey, quick one: what's pIC50 for each of these?
1. COC(=O)c1ccc(Nc2ncc(Br)c(Oc3ccccc3C(=O)OC)n2)cc1
2. COC(=O)c1ccccc1Oc1nc(Nc2ccc(OC)nc2)ncc1Br
3. COc1cc(Nc2ncc(Br)c(Oc3ccccc3C(=O)N3CCC3)n2)cc(OC)c1OC
4. COC(=O)c1ccccc1Oc1nc(Nc2ccc(C(N)=O)cc2)ncc1Br
5. COC(=O)c1ccccc1Oc1nc(Nc2ccc(N3CCOCC3)cc2)ncc1Br
6. COC(=O)c1ccccc1Oc1nc(Nc2ccc3c(c2)OCCO3)ncc1Br
7. COC(=O)c1ccccc1Oc1nc(Nc2ccc(N)cc2)ncc1Br
8. COC(=O)c1ccccc1Oc1nc(Nc2ccc(OC(F)(F)F)cc2)ncc1Br

Solution:
< 6.00
< 6.00
< 6.00
< 6.00
< 6.00
< 6.00
6.00 to 7.00
< 6.00
